target_system: T1, SARS-CoV-2 S1 protein (SARS-CoV-2, UniProt P0DTC2 16-685)
T1 construct: also called SARS-CoV-2 Spike Glycoprotein S1; S1 (subunit 1)
assay_notes: phage ELISA screen on S1, mean
reported_property: ELISA(Avg) (fold over background)
Numbers only, in fold over background.

1) 2-19 (antibody, V domains shown, also called variant 2-19) VH: EVQLLESGGGLVQPGGSLRLSCAASGFTFSSYTMSWVRQAPGKGLEWVSVISGSGGSTYYADSVKGRFTISRDNSKNTLYLQMNSLRAEDTAVYYCAREGYRDYLWYFDLWGQGTLVTVSS VL: DIQMTQSPSSLSASVGDRVTITCTGTSTDVGSYNLVSWYQQKPGKAPKLLIYEGTKRPSGVPSRFSGSGSGTDFTLTISSLQPEDFATYYCCSYAGSYTSVVFGQGTKVEIK : 21.7
2) 2-18 (antibody, V domains shown, also called variant 2-18) VH: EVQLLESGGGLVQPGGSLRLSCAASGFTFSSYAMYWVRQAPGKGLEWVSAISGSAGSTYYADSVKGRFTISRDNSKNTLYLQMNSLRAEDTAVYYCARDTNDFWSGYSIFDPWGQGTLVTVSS VL: DIQMTQSPSSLSASVGDRVTITCTGTSSDIGSYNLVSWYQQKPGKAPKLLIYEGTKRPSGVPSRFSGSGSGTDFTLTISSLQPEDFATYYCCSYAGSRTYVFGQGTKVEIK : 43
3) 2-2 (second entry, printed after 2-19) (antibody, V domains shown) VH: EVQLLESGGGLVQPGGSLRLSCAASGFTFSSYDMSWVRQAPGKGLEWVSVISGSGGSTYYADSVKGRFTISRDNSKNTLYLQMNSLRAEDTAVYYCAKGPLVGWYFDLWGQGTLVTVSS VL: DIQMTQSPSSLSASVGDRVTITCTGTSSNVGSYNLVSWYQQKPGKAPKLLIYEGTKRPSGVPSRFSGSGSGTDFTLTISSLQPEDFATYYCCSYAGSSSFVVFGQGTKVEIK : 12.8

Attention now shifts to the item below.
Query string: Please look at this binder and report its ELISA(Avg): 2-16 (antibody, V domains shown, also called variant 2-16) VH: EVQLLESGGGLVQPGGSLRLSCAASGFTFSSYAMSWVRQAPGKGLEWVSVISGSGGSTYYADSVKGRFTISRDNSKNTLYLQMNSLRAEDTAVYYCAREGYRDYLWYFDLWGQGTLVTVSS VL: DIQMTQSPSSLSASVGDRVTITCTGTSSDVGSYDLVSWYQQKPGKAPKLLIYEGNKRPSGVPSRFSGSGSGTDFTLTISSLQPEDFATYYCCSYAGSSVVFGQGTKVEIK
Result string: 7.1
